biological target: Sigma non-opioid intracellular receptor 1 (Homo sapiens, UniProt Q99720); assay: Binding affinity for [3H]- pentazocine at sigma opioid receptor
Sequence (Q99720 whole entry): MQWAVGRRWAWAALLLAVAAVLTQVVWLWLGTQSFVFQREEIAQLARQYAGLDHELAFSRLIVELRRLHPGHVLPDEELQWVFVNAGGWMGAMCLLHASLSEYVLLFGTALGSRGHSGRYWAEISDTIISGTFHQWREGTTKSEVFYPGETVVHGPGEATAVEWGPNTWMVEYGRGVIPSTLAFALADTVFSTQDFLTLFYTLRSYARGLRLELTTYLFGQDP
The following ranges of Ki define the classes used here: c1 = under 100 nM, c2 = from 100 nM up to 400 nM, c3 = 400 nM and over

These recorded examples may help you get a feel for the data.
{"given_smiles": "NCCCC[C@@H]1C(=O)N([C@@H](CC2CCCCC2)C(N)=O)C(=O)N1Cc1ccccc1", "label_class": "c2"}
{"given_smiles": "CCC[C@H](C(=O)NCc1ccccc1)N1C(=O)[C@@H](CCCCCN)N(Cc2ccccc2)C1=O", "label_class": "c3"}
{"given_smiles": "CC[C@H](C)[C@H](C(=O)NCc1ccccc1)N1C(=O)[C@@H](CCCN)N(Cc2ccccc2)C1=O", "label_class": "c2"}
{"given_smiles": "NCCCCC[C@@H]1C(=O)N([C@H](CC2CCCCC2)C(N)=O)C(=O)N1Cc1ccccc1", "label_class": "c3"}
{"given_smiles": "CC[C@H](C)[C@@H](C(=O)NCc1ccccc1)N1C(=O)[C@@H](CCCCN)N(Cc2ccccc2)C1=O", "label_class": "c1"}

Enquiry: Band assignment needed for "CCC[C@H](C(=O)NCc1ccccc1)N1C(=O)[C@H](CCCCN)N(Cc2ccccc2)C1=O" please.
Return: c1

Enquiry: Would you mind sorting "CC[C@@H](C)[C@H](C(=O)NCc1ccccc1)N1C(=O)[C@@H](CCCCN)N(Cc2ccccc2)C1=O" into the appropriate category?
Return: c2

###

molecular target: Sigma non-opioid intracellular receptor 1 (Homo sapiens); experiment: Binding affinity for [3H]- pentazocine at sigma opioid receptor
Measured pKi by item
// field semantics: pKi = negative decimal log of concentration (mol/L)

{"given_smiles": "NCCC[C@H]1C(=O)N([C@H](CC2CCCCC2)C(N)=O)C(=O)N1Cc1ccccc1", "value_observed": 6.39}

Enquiry: Entry under review: "CCC[C@H](C(=O)NCc1ccccc1)N1C(=O)[C@@H](CCCCN)N(Cc2ccccc2)C1=O" . Reported pKi?
Return: 7.10

Enquiry: Recorded pKi for "CC[C@H](C)[C@H](C(=O)NCc1ccccc1)N1C(=O)[C@@H](CCCCCN)N(Cc2ccccc2)C1=O" , please?
Return: 5.34

Enquiry: Recorded pKi for "CCC[C@H](C(=O)NCc1ccccc1)N1C(=O)[C@@H](CCCN)N(Cc2ccccc2)C1=O" , please?
Return: 6.36

Enquiry: Looking for the measured pKi of "NCCCC[C@@H]1C(=O)N([C@H](CC2CCCCC2)C(N)=O)C(=O)N1Cc1ccccc1" , can you help?
Return: 6.72
